Origin of measurements: ChEMBL document CHEMBL5331094

biological target: Bromodomain-containing protein 9 (Homo sapiens) (UniProt Q9H8M2); assay: Binding affinity of GST-tagged BRD9 domain (unknown origin) to histone H4Ac (1 to 21 residues) assessed as residual binding at 10 uM by alphascreen analysis relative to control
measuredParameter: Activity (%)

Example molecules with recorded Activity:
Cc1cccc(-n2c(C)nn(C)c2=O)c1 | 86.7
CCc1nn(C)c(=O)n1-c1ccc(C)c(C)c1 | 85.1
Cc1nn(C)c(=O)n1C1CCCCC1 | 77.9
CCc1nn(CC)c(=O)n1-c1ccc(F)c(Cl)c1 | 86.6
Cc1nn(C)c(=O)n1-c1ccc(C(C)(C)C)cc1 | 95.7

[I] CCc1n[nH]c(=O)n1-c1ccc(C)c(Cl)c1
[II] CCc1nn(CC)c(=O)n1-c1cccc(C(F)(F)F)c1
Incoming: Which record shows the lower Activity: the first, I , or the second, II ? Answer by stating the label of the chosen item.
Outgoing: II
(II: 39.4%, I: 97.5%)

====

target: Bromodomain-containing protein 7 (Homo sapiens, UniProt Q9NPI1); assay: Inhibition of recombinant His-tagged […] (unknown origin) to histone H3 (1 to 30 residues) K4/18/23/27Ac incubated for 30 mins by alphascreen analysis
Sequence (Q9NPI1 whole entry, the tested form may be a part): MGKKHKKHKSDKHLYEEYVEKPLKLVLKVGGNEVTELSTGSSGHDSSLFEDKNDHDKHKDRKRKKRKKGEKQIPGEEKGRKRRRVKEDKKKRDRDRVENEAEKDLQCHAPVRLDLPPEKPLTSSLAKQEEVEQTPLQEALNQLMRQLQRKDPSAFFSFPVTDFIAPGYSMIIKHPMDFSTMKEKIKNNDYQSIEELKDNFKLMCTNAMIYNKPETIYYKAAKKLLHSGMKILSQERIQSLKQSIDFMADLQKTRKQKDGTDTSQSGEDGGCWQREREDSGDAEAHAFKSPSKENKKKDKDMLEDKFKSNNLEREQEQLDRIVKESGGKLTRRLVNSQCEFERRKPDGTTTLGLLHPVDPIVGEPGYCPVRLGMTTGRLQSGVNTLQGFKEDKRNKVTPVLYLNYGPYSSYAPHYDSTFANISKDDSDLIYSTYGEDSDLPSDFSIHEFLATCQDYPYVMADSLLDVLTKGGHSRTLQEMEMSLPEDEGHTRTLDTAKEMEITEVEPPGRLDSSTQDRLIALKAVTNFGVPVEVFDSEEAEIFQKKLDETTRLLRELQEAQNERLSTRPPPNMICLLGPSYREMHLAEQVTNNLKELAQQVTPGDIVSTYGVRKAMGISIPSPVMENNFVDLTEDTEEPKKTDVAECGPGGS
measuredParameter: IC50 (µM)
Answer with a number only, understood to be in µM.

Incoming: Reported IC50, compound CCc1nn(C)c(=O)n1-c1ccc2c(c1)OCO2 : ____
Outgoing: 71.4

====

Target: Bromodomain-containing protein 9 (Homo sapiens)
Sequence (Q9H8M2 whole entry): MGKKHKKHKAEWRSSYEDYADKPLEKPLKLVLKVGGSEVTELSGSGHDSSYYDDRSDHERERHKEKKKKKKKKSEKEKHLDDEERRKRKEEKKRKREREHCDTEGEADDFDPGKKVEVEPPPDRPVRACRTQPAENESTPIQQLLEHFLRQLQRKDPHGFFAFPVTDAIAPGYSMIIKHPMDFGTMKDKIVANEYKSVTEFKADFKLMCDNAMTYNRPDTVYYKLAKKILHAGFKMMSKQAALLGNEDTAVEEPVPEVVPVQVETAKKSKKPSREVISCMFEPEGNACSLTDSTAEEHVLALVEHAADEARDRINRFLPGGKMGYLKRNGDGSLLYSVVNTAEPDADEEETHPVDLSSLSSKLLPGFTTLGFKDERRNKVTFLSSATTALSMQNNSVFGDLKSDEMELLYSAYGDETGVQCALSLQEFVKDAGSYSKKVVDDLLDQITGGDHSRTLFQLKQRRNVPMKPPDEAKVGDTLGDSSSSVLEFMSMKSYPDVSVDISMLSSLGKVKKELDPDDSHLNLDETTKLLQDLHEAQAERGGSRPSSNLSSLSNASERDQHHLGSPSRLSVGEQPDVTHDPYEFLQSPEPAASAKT
Assay: Inhibition of BRD9 (unknown origin) by alpha screen analysis
pIC50: −log10 of the molar value.
measuredParameter: pIC50

Example compounds with recorded pIC50:
CCc1nn(C)c(=O)n1-c1ccc2c(c1)OCO2 | 6.85
CCc1nn(C)c(=O)n1-c1ccc(OC)c(OC)c1 | 5.38
CCn1nc(C)n(-c2ccc(F)c(Cl)c2)c1=O | 5.40
CCn1nc(C)n(-c2ccc(OC)c(OC)c2)c1=O | 5.12
CCc1nn(C)c(=O)n1-c1ccc(F)c(Cl)c1 | 5.73

[I] CCn1nc(C)n(-c2ccc3c(c2)OCO3)c1=O
[II] CCc1nn(CC)c(=O)n1-c1cccc(C(F)(F)F)c1
[III] COc1ccc(-n2c(C)nn(C)c2=O)cc1OC
[IV] Cc1nn(C)c(=O)n1-c1ccc2c(c1)OCO2
Incoming: Arrange the 4 compounds by rising pIC50, starting with the smallest. The labels, placed in the requested order, form the answer.
Outgoing: IV, I, II, III
(IV: 4.95, I: 5.26, II: 5.60, III: 6.46)
